Experiment: NCI Yeast Anticancer Drug Screen. Data for the cln2 rad14 strain (AID 165);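 further: 0% = growth equal to vehicle treated cultures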
Measurement Setup: S. cerevisiae cln2 rad14 strain, at 50.0 µM, active compounds read high
This is part of a sample that, as a whole, favours compounds with a hit. Of some 79,000 tested, about 15% had one in any assay. Residues, ends and D or L forms follow the SMILES beside them. *: point of attachment. CH2Cl = ClC*
Here the recorded growth inhibition is given for each entry.
// return numeric value only (unit: %, not printed)

Example molecules with recorded growth inhibition:
1) COc1ccc(N=N/C(=N\NC(=O)c2cc(Br)ccc2O)c2ccc(N(CCC#N)CCC#N)cc2OC)cc1: 30.9
2) COc1ccc(N)c2c1C(=O)c1ccccc1C2=O: 32.5
3) CC(=O)CC(=O)/C=C/c1cccs1: 32.1

INPUT: Give the measured growth inhibition of OC(CN1CCCCC1)c1cc(Cl)c(Cl)c(Cl)c1 (configuration not stated) .
OUTPUT: 51.6

INPUT: And what about the molecule CC(=O)OCC1OC(O[C@H]2C=C[C@@H](C(=O)OCc3ccccc3)n3c(=O)n(-c4ccccc4)c(=O)n32)C(OC(C)=O)C(OC(C)=O)C1OC(C)=O (some centres not stated) ?
OUTPUT: 53.6

INPUT: Follow-up item: CC(=O)NC(CC(C)C)C(=O)NC(Cc1ccccc1)C(=O)CCl (stereo not drawn) (Ac-Leu-Phe-CH2Cl; configuration not given here)
OUTPUT: -31.9

INPUT: What about this molecule? Cc1ccc(N=Nc2ccc(O)c(C)c2)cc1
OUTPUT: 92.2

---

Experiment: NCI Yeast Anticancer Drug Screen. Data for the cln2 rad14 strain (AID 165);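 further: 0% = growth equal to vehicle treated cultures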
Measurement Setup: S. cerevisiae cln2 rad14 strain, at 50.0 µM (retest, dose inferred, filed as 5.0), active compounds read high
The panel holds about 79,000 compounds, 15% with a hit somewhere; the sample as a whole holds those more often.
Overview of reported growth inhibition across a group of compounds:
Respond numerically; units are % and should not be typed.

INPUT: Suppose we examine the compound S=c1[nH]c2c(Cl)c(Cl)c(Cl)c(Cl)c2[nH]1 ; what growth inhibition value has been reported?
OUTPUT: 95

INPUT: Ok, now O/N=C/C1c2ccccc2-c2ccccc21
OUTPUT: 8

---

Experiment: NCI Yeast Anticancer Drug Screen. Data for the mlh1 strain (AID 171);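 further: 0% = growth of vehicle-treated control cultures of the same strain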
Measurement Setup: S. cerevisiae mlh1 strain growth inhibition; at 100.0 µM; active compounds read high
This is part of a sample that, as a whole, favours compounds with a hit. Of some 79,000 tested, about 15% had one in any assay.
Readout Name: growth inhibition (%)
A number alone suffices; assume %.

Here are 3 compounds together with their reported answers.
1. CC(=O)Oc1ccc(N2C(=O)C3c4[nH]c5ccccc5c4C4CCC(C(C)(C)C)CC4C3C2=O)cc1 (centres undefined): 94
2. Cc1nc2c(ncn2CCO)c(=O)[nH]1: -5
3. S=c1[nH]c2c(Cl)c(Cl)c(Cl)c(Cl)c2[nH]1: 94

INPUT: Name the reported growth inhibition value associated with the compound Oc1ccc(C=Nc2ccccc2O)cc1
OUTPUT: 73

---

Measured growth inhibition by item
Experiment: NCI Yeast Anticancer Drug Screen. Data for the rad50EPP+ strain (AID 151);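 further: 0% = growth of vehicle-treated control cultures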
Measurement Setup: S. cerevisiae rad50 mutant strain, at 100.0 µM, active compounds read high
About 79,000 compounds went through this panel and 15% of them were active in at least one assay; those are over-represented in the sample as a whole.
Unit % implied. Number only.

INPUT: Which growth inhibition value is on record for CN(C)CC1CCCc2ccccc2C1=O (stereo not given) ?
OUTPUT: 97

INPUT: Param item: Clc1c(Cl)c(Cl)c2n[nH]nc2c1Cl
OUTPUT: 20

INPUT: And the next one, CCCCC(CC)C(=O)Oc1ccc(C(=O)c2ccccc2)c(O)c1 (stereo not given) ?
OUTPUT: 88

INPUT: Another compound to check: Cc1cc(OCc2ccccc2)ccc1[N+](=O)[O-]
OUTPUT: 75

INPUT: Entry to check: COC(=O)c1ccc2c(c1)Cc1ccccc1-2
OUTPUT: 43

Origin of measurements: PubChem BioAssay (NCI)
